Test system: human peripheral blood mononuclear cells (PBMC)
Experiment: Viability of PBMC in suspension culture
Type: cell-based
Conditions: Homo sapiens; PBMC, suspension, 72 h; highest dose administered 10 μM
measurement.label: IC50

Task: Please look at this molecule and report its IC50: CCN(CC)CCNC(=O)c1c(C)[nH]c(/C=C2\C(=O)Nc3ccc(Cl)cc32)c1C
Output: > 10 µM
